Where do these numbers come from? They come from PubChem BioAssay (NCI).

# Test system: HT29 colon
# run description: NCI tumour cell line growth inhibition, 48 h
value type: TGI

Cc1nn2c(/C=C3\C(=O)Nc4ccccc43)c(C)nc2s1
> 100 µM

What value of TGI has been reported for the following molecule? C#CCOc1cccc(Nc2ncc3ncn(C4CCN(C(=O)CCl)C4)c3n2)c1 (stereo not given) > 62.5 µM

Please look up its TGI: `COc1cc(C(=O)C/C(CCC(=O)Nc2ccc(Cl)cc2Cl)=N/Nc2nnc(C)n2N)ccc1O` > 100 µM

So what's the measured TGI for this one? CSC1NNC2(C(=O)N1)c1ccccc1-c1ccccc12 (stereo not given) > 10 µM

# get_value(readout='TGI', item= COC(=O)C12C3C4C1C1C2C3C41C(=O)N(C(C)C)C(C)C (stereo not given) ) > 100 µM
